- System: FLT3(K663Q)
- condition: Compound Concentration (nM):1000
readout kind: Percent Control

Query block: Requested read-out Percent Control, target or system FLT3(K663Q), entry CN(C)c1cc2c(Nc3ccc4c(cnn4Cc4ccccc4)c3)ncnc2cn1 [GW282974X]
Result block: 79%

Query block: Request: Percent Control, test system FLT3(K663Q), entry CCS(=O)(=O)c1ccc(OC)c(Nc2ncc(-c3cccc(F)c3)o2)c1 [GW621970X]
Result block: 7.9%

Query block: Value wanted: Percent Control (FLT3(K663Q)) of entry CC1=C(C(=O)Nc2ccc3[nH]ncc3c2)C(c2ccc3ccccc3c2)CC(=O)N1 (centres unmarked) [GSK270822A]
Result block: 100%

Query block: Form field - read-out: Percent Control; system: FLT3(K663Q); submitted item: `COc1ccc2cc(-c3c(-c4ccncc4)nc(-c4ccc(S(C)(=O)=O)cc4C)n3C)ccc2c1`
Result block: 93%

Others:
Query block: Give Percent Control (FLT3(K663Q)) of the following compound: NS(=O)(=O)c1ccc(N/N=C2\C(=O)Nc3ccc(C(=O)NCCc4c[nH]cn4)cc32)cc1 [GW300660X]
Result block: 100%

Query block: Find the measured Percent Control: item C/C(Nc1ccc(S(N)(=O)=O)cc1)=C1/C(=O)Nc2ccccc21 [GW335962X] , target or system FLT3(K663Q).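 Note: KINOMEscan scanMAX binding as percent activity remaining versus control; lower means stronger binding.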
Result block: 60%

Query block: For the record NS(=O)(=O)c1ccc(N/N=C2\C(=O)Nc3ccc(Cl)cc32)cc1 [GW280670X] , what value of Percent Control is listed for FLT3(K663Q)?
Result block: 18%

Query block: For the record `O=C(Nc1n[nH]c2nc(-c3ccc(O)cc3)c(Br)cc12)C1CC1` , what value of Percent Control is listed for FLT3(K663Q)?
Result block: 66%

Query block: Record lookup: for FLT3(K663Q), what Percent Control belongs to `NS(=O)(=O)c1ccc(N/N=C2\C(=O)Nc3ccc(-c4cnco4)cc32)cc1` ?
Result block: 79%

Query block: Percent Control of COc1cc(C=NNc2ncnc3c2cnn3-c2ccccc2)ccc1O [GW513184X] on FLT3(K663Q)?
Result block: 63%

Query block: // fetch FLT3(K663Q) Percent Control for `CCn1c(-c2nonc2N)nc2c(C#CC(C)(C)O)nc(OCCNC)cc21.Cl`
Result block: 100%

Query block: Request: Percent Control, test system FLT3(K663Q), entry C[C@@H](Oc1cc(-n2cnc3ccc(OC4CCN(C)CC4)cc32)sc1C(N)=O)c1ccccc1Cl [GSK579289A];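 note: KINOMEscan scanMAX binding as percent activity remaining versus control; lower means stronger binding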
Result block: 17%

Query block: Item: O=C1Nc2ccc(C(=O)c3ccco3)cc2C1=Cc1cc(Cl)c(O)c(Cl)c1 [GW406108X] Test system: FLT3(K663Q) Read-out: Percent Control Value: ?;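 note: KINOMEscan scanMAX binding as percent activity remaining versus control; lower means stronger binding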
Result block: 83%

Query block: // fetch FLT3(K663Q) Percent Control for CC1=C(C(=O)Nc2ccc3[nH]ncc3c2)C(c2ccc(Cl)c(Cl)c2)CC(=O)N1 (centres unmarked) [GSK299115A]
Result block: 78%

Query block: Form: Entry = COc1cc(N2CCN(C(C)C)CC2)ccc1Nc1nc(Nc2ccc(F)cc2C(=O)NC[C@@H](O)CO)c2cc[nH]c2n1 [GSK1392956A] | System = FLT3(K663Q) | Percent Control = ____;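 note: KINOMEscan scanMAX binding as percent activity remaining versus control; lower means stronger binding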
Result block: 100%

Query block: Recall the recorded Percent Control for COc1cccc(-c2c[nH]c3c(N/N=C/c4ccncc4)ncnc23)c1 [GW814408X] with FLT3(K663Q) and state it.
Result block: 76%

Query block: Fill in the recorded Percent Control for this compound, with FLT3(K663Q) as test system: COc1cc2ncnc(Nc3ccc4c(cnn4Cc4ccccc4)c3)c2cc1OC.Cl [GW282449A]
Result block: 49%
